# test-summary: Guinea pig PK after transtympanic delivery (perilymph and cochlea, LC/MS/MS)
# Assay type: in vivo
# assay-context: male, Hartley, cochlea, other: transtympanic, 30 μL, Amorphous form (Example 5(d)), 30 μL transtympanic, Day 28, LLOQ = 0.08 μM, read-out: Cochlea Average concentration
outcome-measure: concentration at 28 day (nM)
The response must be a number in nM with no trailing unit.

Exercise: For the compound "CN1C(=O)[C@@H](NC(=O)[C@](C)(F)C(=O)NCC(F)(F)C(F)(F)F)c2ccccc2-c2ccccc21" , give its measured concentration at 28 day value.
Key: 0

----------
# test-summary: Guinea pig PK after transtympanic delivery (perilymph and cochlea, LC/MS/MS)
# Type: in vivo
# assay-context: male, Hartley, perilymph, other: transtympanic, 30 μL, Crystalline form (Example 5(c)), 30 μL transtympanic, Day 1, LLOQ = 0.08 μM, read-out: Perilymph Average concentration
# Method: Male Hartley guinea pigs (300-350 g) were anesthetized with ketamine and xylazine. Thirty microliters of an aqueous pharmaceutical composition of the instant embodiments was delivered transtympanically to deposit the drug to the round window membrane. […] At various timepoints after administration, the animals were euthanized by CO2 inhalation. […] All tissues collected were analyzed using LC/MS/MS for test compound concentration as follows. […] The supernatants were analyzed using LC-MS/MS. […]
outcome-measure: concentration at 1 day (µM)
Numeric only. Scale: µM

Exercise: Report measured concentration at 1 day; entry is CN1C(=O)[C@@H](NC(=O)[C@](C)(F)C(=O)NCC(F)(F)C(F)(F)F)c2ccccc2-c2ccccc21 [Compound II]
Key: 502

----------
# test-summary: Guinea pig PK after transtympanic delivery (perilymph and cochlea, LC/MS/MS)
# Assay type: in vivo
# assay-context: male, Hartley, cochlea, other: transtympanic, 30 μL, Crystalline form (Example 5(a)), 30 μL transtympanic, Day 21, LLOQ = 0.08 μM, read-out: Cochlea Average concentration
# Procedure: Male Hartley guinea pigs (300-350 g) were anesthetized with ketamine and xylazine. Thirty microliters of an aqueous pharmaceutical composition of the instant embodiments was delivered transtympanically to deposit the drug to the round window membrane. […] At various timepoints after administration, the animals were euthanized by CO2 inhalation. […] All tissues collected were analyzed using LC/MS/MS for test compound concentration as follows. […] The supernatants were analyzed using LC-MS/MS. […]
outcome-measure: concentration at 21 day (µM)
Report as a plain number; the unit µM is understood.

Exercise: Provide one value: measured concentration at 21 day of C[C@H](OC(=O)NCC(F)(F)C(F)(F)F)C(=O)N[C@@H]1C(=O)Nc2ccccc2-c2ccccc21 [Compound I]
Key: 6.2

----------
# test-summary: Guinea pig PK after transtympanic delivery (perilymph and cochlea, LC/MS/MS)
# Format: in vivo
# assay-context: male, Hartley, cochlea, other: transtympanic, 30 μL, Amorphous form (Example 5(b)), 30 μL transtympanic, Day 14, LLOQ = 0.08 μM, read-out: Cochlea Average concentration
outcome-measure: concentration at 14 day (nM)
# value in nM; strip the unit string

Exercise: # return recorded concentration at 14 day for input "C[C@H](OC(=O)NCC(F)(F)C(F)(F)F)C(=O)N[C@@H]1C(=O)Nc2ccccc2-c2ccccc21"
Key: 40

----------
# test-summary: Guinea pig PK after transtympanic delivery (perilymph and cochlea, LC/MS/MS)
# Type: in vivo
# assay-context: male, Hartley, perilymph, other: transtympanic, 30 μL, Crystalline form (Example 5(a)), 30 μL transtympanic, Day 7, LLOQ = 0.08 μM, read-out: Perilymph Average concentration
outcome-measure: concentration at 7 day (µM)
State just the number; it will be interpreted in µM.

Exercise: Fill in concentration at 7 day for record C[C@H](OC(=O)NCC(F)(F)C(F)(F)F)C(=O)N[C@@H]1C(=O)Nc2ccccc2-c2ccccc21 [Compound I]
Key: 18.9
